Molecular target: prolactin receptor (PRLR) (Homo sapiens, UniProt P16471)
Construct: extracellular domain (ECD), purified recombinant
Sequence (P16471 25-234 limits assumed): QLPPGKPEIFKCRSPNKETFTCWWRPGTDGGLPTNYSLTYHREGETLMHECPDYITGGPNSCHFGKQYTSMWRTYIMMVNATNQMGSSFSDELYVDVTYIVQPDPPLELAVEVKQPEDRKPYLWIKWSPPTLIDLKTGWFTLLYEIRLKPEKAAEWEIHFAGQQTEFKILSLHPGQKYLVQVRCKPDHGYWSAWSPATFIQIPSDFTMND
Experiment: microscale thermophoresis; confirmed by isothermal titration calorimetry
TEST READOUT: Kd (µM)
Answer in µM, number only, no unit symbol.

For CCN(CC)c1ccc(/C=N/NC(=O)c2c(Cl)cnn2C)c(O)c1 the compound record lists Kd as 3.31

---

Molecular target: serotonin receptor 2C (HTR2C) (Homo sapiens, UniProt P28335)
Sequence (P28335 33-458): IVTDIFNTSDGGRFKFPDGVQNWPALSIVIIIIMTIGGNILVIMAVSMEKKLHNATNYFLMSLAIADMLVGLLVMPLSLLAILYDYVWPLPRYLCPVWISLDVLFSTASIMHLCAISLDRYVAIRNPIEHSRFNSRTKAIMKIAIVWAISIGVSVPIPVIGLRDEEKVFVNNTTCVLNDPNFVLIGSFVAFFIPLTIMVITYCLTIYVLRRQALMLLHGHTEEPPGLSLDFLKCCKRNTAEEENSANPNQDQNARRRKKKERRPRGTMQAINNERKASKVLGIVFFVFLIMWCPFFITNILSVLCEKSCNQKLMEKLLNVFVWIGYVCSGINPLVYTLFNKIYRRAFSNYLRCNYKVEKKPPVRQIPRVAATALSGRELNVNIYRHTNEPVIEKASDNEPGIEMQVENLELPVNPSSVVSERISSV
Assay: DiscoverX GPCR selectivity panel, multiple doses
Type: cell-based
TEST READOUT: IC50 (µM)
Answer in µM, number only, no unit symbol.

For CCN(CC)c1ccc(/C=N/NC(=O)c2c(Cl)cnn2C)c(O)c1 [SMI-6] the compound record lists IC50 as 3.48

---

Target: UniProt:P28223
Sequence (P28223 whole entry): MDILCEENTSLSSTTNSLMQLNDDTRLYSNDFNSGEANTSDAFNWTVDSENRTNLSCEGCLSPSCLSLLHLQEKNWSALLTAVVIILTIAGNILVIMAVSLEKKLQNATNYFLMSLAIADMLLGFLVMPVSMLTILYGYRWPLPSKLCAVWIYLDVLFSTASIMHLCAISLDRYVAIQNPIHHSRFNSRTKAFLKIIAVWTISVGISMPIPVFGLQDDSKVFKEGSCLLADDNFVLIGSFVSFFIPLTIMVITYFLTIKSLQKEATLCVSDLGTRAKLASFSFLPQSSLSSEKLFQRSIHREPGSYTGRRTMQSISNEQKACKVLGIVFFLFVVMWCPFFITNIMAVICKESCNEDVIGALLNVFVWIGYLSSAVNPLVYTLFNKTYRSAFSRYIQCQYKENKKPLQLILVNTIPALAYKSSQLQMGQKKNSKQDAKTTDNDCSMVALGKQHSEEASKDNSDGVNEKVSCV
Test: DiscoverX GPCR selectivity panel, multiple doses
TEST READOUT: pIC50
Field pIC50 (float): negative decimal logarithm of the concentration in molar.

For CCN(CC)c1ccc(/C=N/NC(=O)c2c(Cl)cnn2C)c(O)c1 [SMI-6] the molecule record lists pIC50 as 5.62
